- Assay Name: Partition coefficient (logP)
- Assay type: physicochemical
- Condition Notes: octanol/water
# strict inequality: logP < 0.5 yields 1 (yes), everything else yields 0 (no)

Query: Is logP strictly under 0.5 for the entry CCCCOc1ccc(CC(N)=O)cc1 ?
Response: 0 (no)

Query: Is logP strictly under 0.5 for the entry NC(=O)CCl ?
Response: 1 (yes)

Query: Is logP strictly under 0.5 for the entry NC(=O)Cc1ccc(OCc2ccccc2)cc1 ?
Response: 0 (no)

Query: Is logP strictly under 0.5 for the entry NC(=O)C(Cl)Cl ?
Response: 1 (yes)

Query: Is logP strictly under 0.5 for the entry CCCCCc1cn[nH]c1 ?
Response: 0 (no)

Query: Is logP strictly under 0.5 for the entry C=CC(N)=O [ACRYLAMIDE] ?
Response: 1 (yes)

Query: Is logP strictly under 0.5 for the entry NC(=O)Cc1ccc(I)cc1 ?
Response: 0 (no)

Query: Is logP strictly under 0.5 for the entry NC(=O)C(F)(F)F [TRIFLUOROACETAMIDE] ?
Response: 1 (yes)

Query: Is logP strictly under 0.5 for the entry CC(C)C(N)=O [ISOBUTYRAMIDE] ?
Response: 1 (yes)

Query: Is logP strictly under 0.5 for the entry Cc1cn[nH]c1 [FOMEPIZOLE] ?
Response: 0 (no)

Query: Is logP strictly under 0.5 for the entry C/C=C/C(N)=O ?
Response: 1 (yes)

Query: Is logP strictly under 0.5 for the entry CCC(CC)C(N)=O ?
Response: 0 (no)

Query: Is logP strictly under 0.5 for the entry C/C=C(\C)C(N)=O ?
Response: 1 (yes)

Query: Is logP strictly under 0.5 for the entry NC(=O)C(Br)Br ?
Response: 1 (yes)
